# FREQUENCY per entry
# TEST_TARGET: human plasma Kallikrein (Homo sapiens, UniProt P03952)
# Construct: purchased Stratech, UK
# Sequence (P03952 20-638): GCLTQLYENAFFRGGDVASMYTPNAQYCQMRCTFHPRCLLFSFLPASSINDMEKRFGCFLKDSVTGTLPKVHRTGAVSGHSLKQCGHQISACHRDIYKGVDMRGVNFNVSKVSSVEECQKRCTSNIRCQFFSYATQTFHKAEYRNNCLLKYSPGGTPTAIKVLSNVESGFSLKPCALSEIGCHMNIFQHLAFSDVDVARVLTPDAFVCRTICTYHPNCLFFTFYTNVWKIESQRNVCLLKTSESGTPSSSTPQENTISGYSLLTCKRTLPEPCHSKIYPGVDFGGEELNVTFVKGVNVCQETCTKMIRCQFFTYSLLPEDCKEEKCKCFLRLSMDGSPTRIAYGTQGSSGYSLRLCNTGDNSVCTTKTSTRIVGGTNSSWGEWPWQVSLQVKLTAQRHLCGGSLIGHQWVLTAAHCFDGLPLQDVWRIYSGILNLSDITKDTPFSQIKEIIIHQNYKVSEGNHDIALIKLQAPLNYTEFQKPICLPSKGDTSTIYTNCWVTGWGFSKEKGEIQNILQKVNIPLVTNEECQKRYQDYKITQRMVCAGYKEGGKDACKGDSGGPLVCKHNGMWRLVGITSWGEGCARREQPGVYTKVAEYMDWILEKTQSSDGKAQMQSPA
# ASSAY_OVERVIEW: Phage selections against human plasma Kallikrein (abundance in selection output)
# Assay type: binding
# MEASUREMENT_CONTEXT: Table 17; relative abundance in the total selection outputs
// keep it numeric: no unit symbol after the value

Below are worked cases with known answers.
CSFPFWCTHQDLC: 1
CSHRRWCTHQDLC: 1
CSFPWRCTHQDLC: 1
CSWPFRCTHQDLC: 7
CSWHARCTHQDLC: 1

Lookup: Test system human plasma Kallikrein (Homo sapiens, UniProt P03952); read-out FREQUENCY; what value for `CSLPIRCTHQDLC` ?
Found: 1

Lookup: GET /values?readout=FREQUENCY&system=human plasma Kallikrein (Homo sapiens, UniProt P03952)&item= `CSHPFRCTHQDLC`
Found: 1

Lookup: Please provide the recorded FREQUENCY for `CSWPSRCTHQDLC` , tested on human plasma Kallikrein (Homo sapiens, UniProt P03952).
Found: 51

Lookup: Could you share what FREQUENCY was measured for `CSYPWRCTHQDLC` , tested on human plasma Kallikrein (Homo sapiens, UniProt P03952)?
Found: 1

Lookup: Any idea what FREQUENCY came out for `CSYPFRCTHQDLC` on human plasma Kallikrein (Homo sapiens, UniProt P03952)?
Found: 1

----------
# ASSAY_OVERVIEW: Quantitative plasma stability Method #3 (LC-MS, 95% plasma), rat plasma
# Type: in vitro ADME
# MEASUREMENT_CONTEXT: rat, plasma; Table 23; method #3; read-out: t1/2 (hrs) in rat plasma (converted)
Numbered stars: 1 amine (or outer) side, 2 acyl side, 3 side chain; on linkers, the order of the positions; unused ones are H or OH. Bridge positions count the residues as written; N and C are the ends. Square brackets hold non-standard residues; d marks the D form. Peptide text beside a SMILES is read from it. TBMB = c1c(C[*:1])cc(C[*:3])cc1C[*:2]; NMeR = CN[C@@H](CCCNC(=N)N)C(=O)O
PROPERTY: half-life at 5 uM

Lookup: Which half-life at 5 uM is listed for CC(=O)N[C@H]1CSCc2cc3cc(c2)CSC[C@H](NC(=O)[C@H](CCCNC(=N)N)N(C)C(=O)[C@H](Cc2ccc(O)cc2)NC(=O)[C@@H]2CCCN2C(=O)[C@H](Cc2ccccc2)NC(=O)[C@H](CO)NC1=O)C(=O)N[C@@H](CC(C)C)C(=O)N[C@@H](Cc1c[nH]cn1)C(=O)N[C@@H](CCC(N)=O)C(=O)N[C@@H](CC(=O)O)C(=O)N[C@@H](CC(C)C)C(=O)N[C@H](C(N)=O)CSC3 [Ac-(06-34-18) Phe2 Tyr4 NMeArg5] (Ac-CSFPY[NMeR]CLHQDLC-NH2; linker 1-7-13 via TBMB) ?
Found: > 20 h

----------
The compounds listed here are annotated with their F (Kivar/KiWT).
# TEST_TARGET: human plasma Kallikrein (Homo sapiens)
# Construct: purchased Stratech, UK
# ASSAY_OVERVIEW: Functional enzyme inhibition assay with fluorogenic substrate Z-PheArg-AMC, human plasma Kallikrein
# Assay type: biochemical
# MEASUREMENT_CONTEXT: Table 24b; ratio of Ki to wild type
Numbered stars: 1 amine (or outer) side, 2 acyl side, 3 side chain; on linkers, the order of the positions; unused ones are H or OH. Bridge positions count the residues as written; N and C are the ends. Square brackets hold non-standard residues; d marks the D form. Peptide text beside a SMILES is read from it. TBMB = c1c(C[*:1])cc(C[*:3])cc1C[*:2]; 2Pal = N[C@@H](Cc1ccccn1)C(=O)O; Agp = N=C(N)NC[C@H](N)C(=O)O
Just the number, please, no unit after it.

Reference set, count: 2
CC(=O)N[C@H]1CSCc2cc3cc(c2)CSC[C@H](NC(=O)[C@H](CCCNC(=N)N)NC(=O)[C@H](Cc2ccc(O)cc2)NC(=O)[C@@H]2CCCN2C(=O)[C@H](Cc2ccccc2)NC(=O)[C@H](CO)NC1=O)C(=O)N[C@@H](CC(C)C)C(=O)N[C@@H](CNC(=N)N)C(=O)N[C@@H](CCC(N)=O)C(=O)N[C@@H](CC(=O)O)C(=O)N[C@@H](CC(C)C)C(=O)N[C@H](C(N)=O)CSC3 [Ac-(06-34-18) Phe2 Tyr4 Agp7] (Ac-CSFPYRCL[Agp]QDLC-NH2; linker 1-7-13 via TBMB): 1599
CC(=O)N[C@H]1CSCc2cc3cc(c2)CSC[C@H](NC(=O)[C@H](CCCNC(=N)N)NC(=O)[C@H](Cc2ccc(O)cc2)NC(=O)[C@@H]2CCCN2C(=O)[C@H](Cc2ccccc2)NC(=O)[C@H](CO)NC1=O)C(=O)N[C@@H](CC(C)C)C(=O)N[C@@H](Cc1ccccn1)C(=O)N[C@@H](CCC(N)=O)C(=O)N[C@@H](CC(=O)O)C(=O)N[C@@H](CC(C)C)C(=O)N[C@H](C(N)=O)CSC3 [Ac-(06-34-18) Phe2 Tyr4 2Pal7] (Ac-CSFPYRCL[2Pal]QDLC-NH2; linker 1-7-13 via TBMB): 126

Lookup: # get_value(readout='F (Kivar/KiWT)', item= CC(=O)N[C@H]1CSCc2cc3cc(c2)CSC[C@H](NC(=O)[C@H](CCCNC(=N)N)NC(=O)[C@H](Cc2ccc(O)cc2)NC(=O)[C@@H]2CCCN2C(=O)[C@H](Cc2ccccc2)NC(=O)[C@H](CO)NC1=O)C(=O)N[C@@H](CC(C)C)C(=O)N[C@@H](Cc1ccccc1)C(=O)N[C@@H](CCC(N)=O)C(=O)N[C@@H](CC(=O)O)C(=O)N[C@@H](CC(C)C)C(=O)N[C@H](C(N)=O)CSC3 [Ac-(06-34-18) Phe2 Tyr4 Phe7] (Ac-CSFPYRCLFQDLC-NH2; linker 1-7-13 via TBMB) )
Found: 102
